Measured Ki of individual entries
Biological target: 5-HT2A receptor (Rattus norvegicus, UniProt P14842)
Construct: from tissue; host or cells: rat frontal cortex (male SD), membrane homogenate
Sequence (P14842 whole entry): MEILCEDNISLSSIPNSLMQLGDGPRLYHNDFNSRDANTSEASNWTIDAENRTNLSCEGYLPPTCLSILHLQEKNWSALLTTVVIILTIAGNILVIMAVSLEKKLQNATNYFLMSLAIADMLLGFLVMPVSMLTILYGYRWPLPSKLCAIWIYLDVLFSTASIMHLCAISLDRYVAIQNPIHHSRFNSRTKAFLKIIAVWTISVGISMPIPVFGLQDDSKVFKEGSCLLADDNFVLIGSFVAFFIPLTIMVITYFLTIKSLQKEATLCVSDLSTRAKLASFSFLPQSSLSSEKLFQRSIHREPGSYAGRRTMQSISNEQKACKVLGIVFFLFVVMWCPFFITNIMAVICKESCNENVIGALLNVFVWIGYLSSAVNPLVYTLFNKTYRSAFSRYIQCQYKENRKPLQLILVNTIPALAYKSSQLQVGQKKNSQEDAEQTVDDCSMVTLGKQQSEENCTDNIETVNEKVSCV
Assay: 5-HT2A competition binding assay, [3H]ketanserin, frontal cortex homogenates
Settings: [3H]ketanserin 1 nM, read-out: Ki (nM ± SEM) (converted)
Kindly report the value followed by its unit.

CC(=O)c1c(C)cc2oc(=O)cc(C)c2c1OCCCCCN1CCN(c2cc(C)cc(C)c2)CC1    1800 nM
CC(=O)c1c(C)cc2oc(=O)cc(C)c2c1OCCN1CCN(c2ccccc2Br)CC1    10600 nM

With those in mind, consider the next molecule.
Task: Need Ki of CC(=O)c1c(C)cc2oc(=O)cc(C)c2c1OCCCCCN1CCN(c2cccc(F)c2)CC1 , thanks.
Output: 1420 nM

* * *

Biological target: 5-HT1A receptor (Rattus norvegicus)
Construct: Hippocampal homogenates (15 μg/mL) were added to each tube as the 5-HT1A receptor source; from tissue; host or cells: rat hippocampus (male Sprague-Dawley), membrane homogenate
Sequence (P19327 1-422): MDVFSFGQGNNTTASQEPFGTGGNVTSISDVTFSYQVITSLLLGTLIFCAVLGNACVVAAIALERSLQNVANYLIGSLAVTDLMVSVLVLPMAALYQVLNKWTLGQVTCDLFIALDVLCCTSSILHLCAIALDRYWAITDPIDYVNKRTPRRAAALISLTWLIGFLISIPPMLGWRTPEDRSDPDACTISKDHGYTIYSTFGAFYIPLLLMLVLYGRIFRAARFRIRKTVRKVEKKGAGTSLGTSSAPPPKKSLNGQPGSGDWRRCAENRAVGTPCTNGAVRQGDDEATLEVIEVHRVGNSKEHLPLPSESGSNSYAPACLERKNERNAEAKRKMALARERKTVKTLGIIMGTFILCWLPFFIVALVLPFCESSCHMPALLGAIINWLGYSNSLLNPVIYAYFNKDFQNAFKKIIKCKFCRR
Test: Antagonist activity for the 5-HT1A receptor, [35S]GTPγS assay in hippocampal homogenates
Assay type: biochemical
Conditions: 8-OH-DPAT 1.4 × 10^−7 M, mean ± SEM
Parameter Measured: IC50 (µM)
The answer is to be given in µM; state only the numeric part.

COc1cccc(N2CCN(CCCCCOc3cc(C)cc4oc(=O)cc(C)c34)CC2)c1 [Compound 1c]    1.58
CC(=O)c1c(OCCCCCN2CCN(c3cccc(Br)c3)CC2)ccc2c(C)cc(=O)oc12 [Compound 5g]    25.1
CC(=O)c1c(OCCN2CCN(c3cc(C)ccc3C)CC2)ccc2c(C)cc(=O)oc12 [Compound 6d]    63.1
CC(=O)c1c(C)cc2oc(=O)cc(C)c2c1OCCCCCN1CCN(c2cc(C)cc(C)c2)CC1 [Compound 3h]    1.26

Task: Need IC50 of Cc1cc(OCCCCCN2CCN(c3cccc(F)c3)CC2)c2c(C)cc(=O)oc2c1 [Compound 1e] , thanks.
Output: 25.1

Task: Need IC50 of COc1cccc(N2CCN(CCOc3cc(C)cc4oc(=O)cc(C)c34)CC2)c1 [Compound 2c] , thanks.
Output: 20

Task: Need IC50 of CC(=O)c1c(C)cc2oc(=O)cc(C)c2c1OCCN1CCN(c2ccccc2C#N)CC1 [Compound 4j] , thanks.
Output: 0.501

Task: Need IC50 of CC(=O)c1c(OCCN2CCN(c3cccc(F)c3)CC2)ccc2c(C)cc(=O)oc12 [Compound 6e] , thanks.
Output: 100
